# reported EC50; entries follow
# assay.system: human β3 receptors (Homo sapiens)
# Construct: Full length β3 AR clones (402 amino acids) containing the last 6 amino acids of hβ3—AR
# Sequence (P13945 whole entry): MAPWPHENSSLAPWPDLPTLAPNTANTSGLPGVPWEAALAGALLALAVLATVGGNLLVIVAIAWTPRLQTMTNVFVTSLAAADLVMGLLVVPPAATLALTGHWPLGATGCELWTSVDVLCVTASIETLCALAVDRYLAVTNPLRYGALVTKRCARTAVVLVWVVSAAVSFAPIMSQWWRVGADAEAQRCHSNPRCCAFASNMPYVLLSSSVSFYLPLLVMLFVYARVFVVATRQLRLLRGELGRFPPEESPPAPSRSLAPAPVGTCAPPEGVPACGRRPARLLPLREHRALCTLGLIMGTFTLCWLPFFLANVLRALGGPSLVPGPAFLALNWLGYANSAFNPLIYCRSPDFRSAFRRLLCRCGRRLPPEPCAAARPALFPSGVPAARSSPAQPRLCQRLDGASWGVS
# experiment.notes: cAMP response (SPA) in CHO cells expressing cloned human β3 adrenergic receptor
# assay.conditions: CHO cells expressing human β3 receptor; cAMP; 30 min incubation; 10^−9 M to 10^−5 M
API: value field is a number in nM; no unit string.

Use these answered entries as a reference point.
1. CS(=O)(=O)Nc1cc([C@@H](O)CNCC2CCN(c3ccc(C(=O)N4CCCC4C(=O)O)cc3)CC2)ccc1O (stereo in doubt): 66
2. COc1ccc(S(=O)(=O)N2CCC(CNC[C@H](O)COc3cccc4[nH]c5ccccc5c34)CC2)cc1: 141
3. O=S(=O)(c1ccc(OC(F)(F)F)cc1)N1CCC(CNC[C@H](O)COc2ccc(O)cc2)CC1: 250

The compound identified as "O=C(NCc1c(F)cccc1F)c1ccc(S(=O)(=O)N2CCC(CNC[C@H](O)COc3ccc(O)cc3)CC2)cc1" registered its EC50 at 110

For "CC(C)N(Cc1c(F)cccc1F)C(=O)Nc1ccc(S(=O)(=O)N2CCC(CNC[C@H](O)c3ccc(O)c(NS(C)(=O)=O)c3)CC2)cc1" the compound record lists EC50 as 27

====

In this section, each of the compounds is paired with its reported pEC50.
# assay.system: human β3 receptors (Homo sapiens)
# Construct: Full length β3 AR clones (402 amino acids) containing the last 6 amino acids of hβ3—AR
# experiment.notes: cAMP response (SPA) in CHO cells expressing cloned human β3 adrenergic receptor
# assay.conditions: CHO cells expressing human β3 receptor; cAMP; 30 min incubation; 10^−9 M to 10^−5 M
The read-out pEC50 is expressed as -log10 of concentration in moles per litre.

1. Cc1cc2c(OC[C@@H](O)CNCC3CCN(CCC(F)(F)F)CC3)cccc2[nH]1 [Example 23]: 5.96

For reference, reported pEC50 for O[C@@H](CNCC1CCN(CCCC(F)(F)F)CC1)COc1cccc2[nH]c3ccccc3c12 [Example 24] stands at 6.03

Lab note: CN1CCN(c2ccc(S(=O)(=O)N3CCC(CNC[C@H](O)COc4ccc(O)cc4)CC3)cc2)C1=O [Example 94] gave pEC50 of 6.29

Kindly note the recorded pEC50 for COC(=O)c1ccc(N2CCC(CNC[C@H](O)c3ccc(O)c(NS(C)(=O)=O)c3)CC2)nc1 [Example 107] , which is 8.00

pEC50 recorded for this compound, COc1ccc(S(=O)(=O)N2CCC(CNC[C@H](O)COc3cccc4[nH]c(=O)[nH]c34)CC2)cc1 [Example 39] , is 7.52

The recorded pEC50 for CC(C)C[C@H](NC(=O)c1ccc(N2CCC(CNC[C@H](O)c3ccc(O)c(NS(C)(=O)=O)c3)CC2)cc1)C(=O)O [Example 114] is 8.00

Sample CS(=O)(=O)Nc1cc([C@@H](O)CNCC2CCN(S(=O)(=O)c3ccc(NC(=O)Nc4ccccn4)cc3)CC2)ccc1O [Example 67] ; pEC50 observed: 7.70

====

# assay.system: human β3 receptors (Homo sapiens)
# Construct: Full length β3 AR clones (402 amino acids) containing the last 6 amino acids of hβ3—AR
# experiment.notes: cAMP response (SPA) in CHO cells expressing cloned human β3 adrenergic receptor
# assay.conditions: CHO cells expressing human β3 receptor; cAMP; 30 min incubation; 10^−9 M to 10^−5 M
measured.parameter: EC50
State the value, then name its unit.

Completed entries (count: 3):
1) COC(=O)[C@@H]1CCCN1C(=O)Nc1ccc(S(=O)(=O)N2CCC(CNC[C@H](O)c3ccc(O)c(NS(C)(=O)=O)c3)CC2)cc1 [Example 111]: 95 nM
2) O=C(Nc1ccc(S(=O)(=O)N2CCC(CNC[C@H](O)COc3ccc(O)cc3)CC2)cc1)c1n[nH]c2ccccc12 [Example 92]: 160 nM
3) CS(=O)(=O)Nc1cc([C@@H](O)CNCC2CCN(S(=O)(=O)c3ccc(NC(=O)N4CCC[C@H]4C(=O)O)cc3)CC2)ccc1O [Example 112]: 131 nM

Let us examine a further case.
# value of EC50, human β3 receptors (Homo sapiens), item COc1ccc(S(=O)(=O)N2CCC(CNC[C@H](O)COc3cccc4c3CC(=O)N4)CC2)cc1 [Example 41] = 95 nM

====

Entries annotated with measured pEC50
# assay.system: human β3 receptors (Homo sapiens)
# Construct: Full length β3 AR clones (402 amino acids) containing the last 6 amino acids of hβ3—AR
# experiment.notes: cAMP response (SPA) in CHO cells expressing cloned human β3 adrenergic receptor
# assay.conditions: CHO cells expressing human β3 receptor; cAMP; 30 min incubation; 10^−9 M to 10^−5 M
Convention used: pEC50 is expressed as -log10 of the molar concentration.

1. CS(=O)(=O)Nc1cc(C(O)CNCC2CCN(S(=O)(=O)c3ccc(-c4noc(CCC(=O)O)n4)cc3)CC2)ccc1O (stereo in doubt): 7.47
2. O=C(NC1CCCCC1)N1CCC(CNC[C@H](O)COc2cccc3[nH]c4ccccc4c23)CC1: 6.96
3. CN(Cc1cc(F)ccc1F)C(=O)Nc1ccc(S(=O)(=O)N2CCC(CNC[C@H](O)c3ccc(O)c(NS(C)(=O)=O)c3)CC2)cc1: 8.15

Value of pEC50 reported for the compound CCCCCCCCNC(=O)Nc1ccc(S(=O)(=O)N2CCC(CNCC(O)COc3cccc4[nH]c(C(N)=O)cc34)CC2)cc1 (stereo not shown) is 7.02
